test: in vivo; settings: goldfish (Carassius auratus), in vivo, plasma concentration, CPM3 caged
assay.readout: concentration at 21 days (ng/g)
Write it as a number; the unit ng/g goes unstated.

The recorded concentration at 21 days for C[C@H](O)C(=O)Nc1c(I)c(C(=O)NC(CO)CO)c(I)c(C(=O)NC(CO)CO)c1I [Iopamidol] is 8.2

The recorded concentration at 21 days for CN(C)CCCC1(c2ccc(F)cc2)OCc2cc(C#N)ccc21 (centres unmarked) [Citalopram] is 0.041

The recorded concentration at 21 days for CC1CCc2cc(F)cc3c(=O)c(C(=O)O)cn1c23 (centres unmarked) [Flumequine] is 0.344

The recorded concentration at 21 days for C[C@]12CCC(=O)C=C1CC[C@@H]1[C@@H]2[C@@H](O)C[C@@]2(C)[C@H]1CC[C@]2(O)C(=O)CO [Hydrocortisone] is 113

// data source = paper PMC5717258
